- TGT: Cholinesterase (Equus caballus, UniProt P81908)
- Sequence (P81908 whole entry): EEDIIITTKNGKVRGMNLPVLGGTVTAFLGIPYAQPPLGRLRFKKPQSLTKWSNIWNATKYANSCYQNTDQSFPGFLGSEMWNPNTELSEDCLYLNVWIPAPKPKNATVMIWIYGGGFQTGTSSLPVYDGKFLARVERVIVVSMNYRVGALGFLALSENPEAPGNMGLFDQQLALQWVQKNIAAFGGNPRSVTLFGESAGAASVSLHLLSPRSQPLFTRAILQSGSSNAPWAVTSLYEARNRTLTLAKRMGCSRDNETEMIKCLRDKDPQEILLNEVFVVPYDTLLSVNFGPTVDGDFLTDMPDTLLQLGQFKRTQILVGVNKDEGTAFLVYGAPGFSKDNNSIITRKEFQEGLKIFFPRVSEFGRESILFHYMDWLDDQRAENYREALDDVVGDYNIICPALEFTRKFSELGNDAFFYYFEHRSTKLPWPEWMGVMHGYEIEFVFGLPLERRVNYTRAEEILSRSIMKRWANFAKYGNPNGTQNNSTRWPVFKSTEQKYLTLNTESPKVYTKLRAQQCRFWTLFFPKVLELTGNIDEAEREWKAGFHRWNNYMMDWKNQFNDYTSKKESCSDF
- PROTOCOL SUMMARY: Inhibition of equine serum BChE using butyrylthiocholine iodide as substrate preincubated for 20mins before the addition of substrate by Ellman's method
- CONDITIONS: read-out: Ki
READOUT KIND: Ki

**Query** So what does the record say about Ki for CC1(C)CC[C@]2(C(=O)OCCCI)CC[C@]3(C)C(=CC[C@@H]4[C@@]5(C)C[C@@H](O)[C@H](O)C(C)(C)[C@@H]5CC[C@]43C)[C@@H]2C1 ?
**Result** > 20 µM

**Query** Another molecule to look at: CC1(C)CC[C@]2(C(=O)O)CC[C@]3(C)C(=CC[C@@H]4[C@@]5(C)C[C@@H](O)[C@H](O)C(C)(C)[C@@H]5CC[C@]43C)[C@@H]2C1
**Result** > 100 µM

**Query** Another molecule to look at: C#CCOC(=O)[C@]12CCC(C)(C)C[C@H]1C1=CC[C@@H]3[C@@]4(C)C[C@@H](O)[C@H](O)C(C)(C)[C@@H]4CC[C@@]3(C)[C@]1(C)CC2
**Result** > 10 µM

---

- TGT: Cholinesterase (Equus caballus)
- PROTOCOL SUMMARY: Inhibition of equine serum BChE using butyrylthiocholine iodide as substrate preincubated for 20mins before the addition of substrate by Ellman's method
- CONDITIONS: read-out: Ki
Exercise: for every item that follows, state its recorded Ki.

**Query** So what does the record say about Ki for COC(=O)[C@]12CCC(C)(C)C[C@H]1C1=CC[C@@H]3[C@@]4(C)C[C@@H](O)[C@H](O)C(C)(C)[C@@H]4CC[C@@]3(C)[C@]1(C)CC2 ?
**Result** > 50 µM

**Query** Another molecule to look at: CC1(C)CC[C@]2(C(=O)OCc3ccc(Cl)cc3)CC[C@]3(C)C(=CC[C@@H]4[C@@]5(C)C[C@@H](O)[C@H](O)C(C)(C)[C@@H]5CC[C@]43C)[C@@H]2C1
**Result** > 30 µM

**Query** Another molecule to look at: C#CCNC(=O)[C@]12CCC(C)(C)C[C@H]1C1=CC[C@@H]3[C@@]4(C)C[C@@H](OC(C)=O)[C@H](OC(C)=O)C(C)(C)[C@@H]4CC[C@@]3(C)[C@]1(C)CC2
**Result** > 14 µM

**Query** Another molecule to look at: CC(=O)O[C@H]1C[C@]2(C)[C@H]3CC=C4[C@@H]5CC(C)(C)CC[C@]5(C(=O)O)CC[C@@]4(C)[C@]3(C)CC[C@H]2C(C)(C)[C@H]1OC(C)=O
**Result** > 20 µM

**Query** Another molecule to look at: C=CCNC(=O)[C@]12CCC(C)(C)C[C@H]1C1=CC[C@@H]3[C@@]4(C)C[C@@H](OC(C)=O)[C@H](OC(C)=O)C(C)(C)[C@@H]4CC[C@@]3(C)[C@]1(C)CC2
**Result** > 20 µM

**Query** Another molecule to look at: COC(=O)[C@]12CCC(C)(C)C[C@H]1C1=CC[C@@H]3[C@@]4(C)C[C@@H](O)[C@H](OS(N)(=O)=O)C(C)(C)[C@@H]4CC[C@@]3(C)[C@]1(C)CC2
**Result** > 20 µM

**Query** Another molecule to look at: CCCNC(=O)[C@]12CCC(C)(C)C[C@H]1C1=CC[C@@H]3[C@@]4(C)C[C@@H](OC(C)=O)[C@H](OC(C)=O)C(C)(C)[C@@H]4CC[C@@]3(C)[C@]1(C)CC2
**Result** > 6 µM

**Query** Another molecule to look at: CCOC(=O)[C@]12CCC(C)(C)C[C@H]1C1=CC[C@@H]3[C@@]4(C)C[C@@H](O)[C@H](O)C(C)(C)[C@@H]4CC[C@@]3(C)[C@]1(C)CC2
**Result** > 14 µM

**Query** Another molecule to look at: C=CCOC(=O)[C@]12CCC(C)(C)C[C@H]1C1=CC[C@@H]3[C@@]4(C)C[C@@H](O)[C@H](O)C(C)(C)[C@@H]4CC[C@@]3(C)[C@]1(C)CC2
**Result** > 30 µM

**Query** Another molecule to look at: CC1(C)CC[C@]2(C(=O)OCCC#CCl)CC[C@]3(C)C(=CC[C@@H]4[C@@]5(C)C[C@@H](O)[C@H](O)C(C)(C)[C@@H]5CC[C@]43C)[C@@H]2C1
**Result** > 6 µM

**Query** Another molecule to look at: C#CCCOC(=O)[C@]12CCC(C)(C)C[C@H]1C1=CC[C@@H]3[C@@]4(C)C[C@@H](O)[C@H](O)C(C)(C)[C@@H]4CC[C@@]3(C)[C@]1(C)CC2
**Result** > 20 µM

---

Exercise: for every item that follows, state its recorded pIC50.
- TGT: Acetylcholinesterase (Electrophorus electricus)
- Sequence (O42275 whole entry): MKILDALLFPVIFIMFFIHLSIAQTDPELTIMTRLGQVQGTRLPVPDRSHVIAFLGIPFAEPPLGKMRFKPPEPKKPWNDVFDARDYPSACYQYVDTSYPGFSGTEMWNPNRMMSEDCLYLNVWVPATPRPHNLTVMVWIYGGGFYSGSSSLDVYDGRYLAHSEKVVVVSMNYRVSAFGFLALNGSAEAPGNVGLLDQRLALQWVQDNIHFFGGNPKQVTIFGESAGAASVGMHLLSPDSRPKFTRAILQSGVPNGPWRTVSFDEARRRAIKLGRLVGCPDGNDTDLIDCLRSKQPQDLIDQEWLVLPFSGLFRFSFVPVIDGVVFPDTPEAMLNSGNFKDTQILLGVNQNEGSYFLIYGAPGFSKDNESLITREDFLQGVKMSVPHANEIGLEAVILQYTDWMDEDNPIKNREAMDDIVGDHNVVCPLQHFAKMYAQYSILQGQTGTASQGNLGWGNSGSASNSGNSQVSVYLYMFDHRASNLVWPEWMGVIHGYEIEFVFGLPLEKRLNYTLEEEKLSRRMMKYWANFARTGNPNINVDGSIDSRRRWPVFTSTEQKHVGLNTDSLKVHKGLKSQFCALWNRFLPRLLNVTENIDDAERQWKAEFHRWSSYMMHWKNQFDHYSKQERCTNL
// pIC50 here means minus log10 of the molar concentration (mol/L)

**Query** // map CC(=O)O[C@@H]1C[C@]2(C)[C@H]3CC=C4[C@@H]5CC(C)(C)CC[C@]5(C(=O)NCc5ccccc5)CC[C@@]4(C)[C@]3(C)CC[C@H]2C(C)(C)[C@H]1OC(C)=O to recorded pIC50 (system: Acetylcholinesterase (Electrophorus electricus))
**Result** 4.53

**Query** Another compound to look at: CC1(C)CC[C@]2(C(=O)OCCCCl)CC[C@]3(C)C(=CC[C@@H]4[C@@]5(C)C[C@@H](O)[C@H](O)C(C)(C)[C@@H]5CC[C@]43C)[C@@H]2C1
**Result** 5.39

**Query** Another compound to look at: CC1(C)CC[C@]2(C(=O)OCCCCCl)CC[C@]3(C)C(=CC[C@@H]4[C@@]5(C)C[C@@H](O)[C@H](O)C(C)(C)[C@@H]5CC[C@]43C)[C@@H]2C1
**Result** 4.98

**Query** Another compound to look at: C#CCNC(=O)[C@]12CCC(C)(C)C[C@H]1C1=CC[C@@H]3[C@@]4(C)C[C@@H](OC(C)=O)[C@H](OC(C)=O)C(C)(C)[C@@H]4CC[C@@]3(C)[C@]1(C)CC2
**Result** 4.82

**Query** Another compound to look at: CC1(C)CC[C@]2(C(=O)NCc3ccccc3)CC[C@]3(C)C(=CC[C@@H]4[C@@]5(C)C[C@@H](OC(=O)CCl)[C@H](OC(=O)CCl)C(C)(C)[C@@H]5CC[C@]43C)[C@@H]2C1
**Result** 4.70

**Query** Another compound to look at: CC1(C)CC[C@]2(C(=O)OC/C=C\CCl)CC[C@]3(C)C(=CC[C@@H]4[C@@]5(C)C[C@@H](O)[C@H](O)C(C)(C)[C@@H]5CC[C@]43C)[C@@H]2C1
**Result** 4.75

**Query** Another compound to look at: CC1(C)CC[C@@]2(C(=O)OCc3ccc([N+](=O)[O-])cc3)CC[C@@]3(C)C(=CC[C@H]4[C@]5(C)C[C@H](O)[C@@H](O)C(C)(C)[C@H]5CC[C@@]43C)[C@H]2C1 (single isomer, unassigned)
**Result** 5.13

**Query** Another compound to look at: COC(=O)[C@]12CCC(C)(C)C[C@H]1C1=CC[C@@H]3[C@@]4(C)C[C@@H](O)[C@H](OS(N)(=O)=O)C(C)(C)[C@@H]4CC[C@@]3(C)[C@]1(C)CC2
**Result** 4.67

**Query** Another compound to look at: CC1(C)CC[C@]2(C(=O)O)CC[C@]3(C)C(=CC[C@@H]4[C@@]5(C)C[C@H](OC(=O)CCl)[C@H](OC(=O)CCl)C(C)(C)[C@@H]5CC[C@]43C)[C@@H]2C1
**Result** 5.18

**Query** Another compound to look at: CC1(C)CC[C@]2(C(=O)O)CC[C@]3(C)C(=CC[C@@H]4[C@@]5(C)C[C@@H](OC(=O)CCl)[C@H](OC(=O)CCl)C(C)(C)[C@@H]5CC[C@]43C)[C@@H]2C1
**Result** 4.82

**Query** Another compound to look at: CC1(C)CC[C@]2(C(=O)OCCCI)CC[C@]3(C)C(=CC[C@@H]4[C@@]5(C)C[C@@H](O)[C@H](O)C(C)(C)[C@@H]5CC[C@]43C)[C@@H]2C1
**Result** 4.99

**Query** Another compound to look at: CC1(C)CC[C@]2(C(=O)OCc3ccc(Cl)cc3Cl)CC[C@]3(C)C(=CC[C@@H]4[C@@]5(C)C[C@@H](O)[C@H](O)C(C)(C)[C@@H]5CC[C@]43C)[C@@H]2C1
**Result** 5.33

**Query** Another compound to look at: CC1(C)CC[C@]2(C(=O)OCC3CCCCC3)CC[C@]3(C)C(=CC[C@@H]4[C@@]5(C)C[C@@H](O)[C@H](O)C(C)(C)[C@@H]5CC[C@]43C)[C@@H]2C1
**Result** 5.41

**Query** Another compound to look at: CC1(C)CC[C@]2(C(=O)OCCCO)CC[C@]3(C)C(=CC[C@@H]4[C@@]5(C)C[C@@H](O)[C@H](O)C(C)(C)[C@@H]5CC[C@]43C)[C@@H]2C1
**Result** 4.86

**Query** Another compound to look at: CCCCCCOC(=O)[C@]12CCC(C)(C)C[C@H]1C1=CC[C@@H]3[C@@]4(C)C[C@@H](O)[C@H](O)C(C)(C)[C@@H]4CC[C@@]3(C)[C@]1(C)CC2
**Result** 5.36

**Query** Another compound to look at: CCOC(=O)[C@]12CCC(C)(C)C[C@H]1C1=CC[C@@H]3[C@@]4(C)C[C@@H](O)[C@H](O)C(C)(C)[C@@H]4CC[C@@]3(C)[C@]1(C)CC2
**Result** 5.33

**Query** Another compound to look at: CC1(C)CC[C@]2(C(=O)NCc3ccccc3)CC[C@]3(C)C(=CC[C@@H]4[C@@]5(C)C[C@H](OC(=O)CCl)[C@H](OC(=O)CCl)C(C)(C)[C@@H]5CC[C@]43C)[C@@H]2C1
**Result** 4.82

**Query** Another compound to look at: CC1(C)CC[C@]2(C(=O)OCCCBr)CC[C@]3(C)C(=CC[C@@H]4[C@@]5(C)C[C@@H](O)[C@H](O)C(C)(C)[C@@H]5CC[C@]43C)[C@@H]2C1
**Result** 4.51

**Query** Another compound to look at: C=CCCOC(=O)[C@]12CCC(C)(C)C[C@H]1C1=CC[C@@H]3[C@@]4(C)C[C@@H](O)[C@H](O)C(C)(C)[C@@H]4CC[C@@]3(C)[C@]1(C)CC2
**Result** 5.20

These entries and their values trace back to ChEMBL document CHEMBL3779826.
